target.desc: GlyT1 transporter (Homo sapiens)
Construct: endogenously expressing the GlyT1 transporter
assay.summary: GlyT1 assay: 3H-glycine uptake into SK-N-MC cells (Cytostar-T format)
applied.conditions: glycine uptake in human SK-N-MC cells endogenously expressing GlyT1; 500 nM glycine, 1% DMSO, signal recorded over 60 min
Listed next: entries and their corresponding IC50.
Give the quantity in nM, number only.

// solved cases for IC50 follow
CC(C)Oc1ccc(S(C)(=O)=O)cc1C(=O)N1CC2CC2(c2noc(C(F)(F)F)n2)C1 (racemic) [Example 96] | 27
CS(=O)(=O)c1ccc(-n2ccc(C(F)(F)F)n2)c(C(=O)N2CC3CC3(c3noc(C(F)(F)F)n3)C2)c1 (racemic) | 764
C[C@@H](Oc1ccc(S(C)(=O)=O)cc1C(=O)N1CC2CC2(c2noc(C3(C(F)(F)F)CC3)n2)C1)C(F)(F)F (single isomer, unassigned) [Example 70] | 155

Query C[C@H](Oc1ccc(S(C)(=O)=O)cc1C(=O)N1CC2CC2(c2noc(C(C)(C)C(F)(F)F)n2)C1)C(F)(F)F (mixture of isomers) on GlyT1 transporter (Homo sapiens); IC50 returned: 18

The reported IC50 value, GlyT1 transporter (Homo sapiens), for C[C@@H](Oc1ccc(S(C)(=O)=O)cc1C(=O)N1CC2CC2(c2cc(C(F)(F)F)on2)C1)C(F)(F)F (single isomer, unassigned) [Example 50] reads 6

C[C@@H](Oc1ccc(S(C)(=O)=O)cc1C(=O)N1CC2CC2(c2nccc(C3CC3)n2)C1)C(F)(F)F (mixture of isomers) on GlyT1 transporter (Homo sapiens) gives IC50 = 6

====

target.desc: GlyT1 transporter (Homo sapiens, UniProt P48067)
Construct: endogenously expressing the GlyT1 transporter
Sequence (P48067 whole entry): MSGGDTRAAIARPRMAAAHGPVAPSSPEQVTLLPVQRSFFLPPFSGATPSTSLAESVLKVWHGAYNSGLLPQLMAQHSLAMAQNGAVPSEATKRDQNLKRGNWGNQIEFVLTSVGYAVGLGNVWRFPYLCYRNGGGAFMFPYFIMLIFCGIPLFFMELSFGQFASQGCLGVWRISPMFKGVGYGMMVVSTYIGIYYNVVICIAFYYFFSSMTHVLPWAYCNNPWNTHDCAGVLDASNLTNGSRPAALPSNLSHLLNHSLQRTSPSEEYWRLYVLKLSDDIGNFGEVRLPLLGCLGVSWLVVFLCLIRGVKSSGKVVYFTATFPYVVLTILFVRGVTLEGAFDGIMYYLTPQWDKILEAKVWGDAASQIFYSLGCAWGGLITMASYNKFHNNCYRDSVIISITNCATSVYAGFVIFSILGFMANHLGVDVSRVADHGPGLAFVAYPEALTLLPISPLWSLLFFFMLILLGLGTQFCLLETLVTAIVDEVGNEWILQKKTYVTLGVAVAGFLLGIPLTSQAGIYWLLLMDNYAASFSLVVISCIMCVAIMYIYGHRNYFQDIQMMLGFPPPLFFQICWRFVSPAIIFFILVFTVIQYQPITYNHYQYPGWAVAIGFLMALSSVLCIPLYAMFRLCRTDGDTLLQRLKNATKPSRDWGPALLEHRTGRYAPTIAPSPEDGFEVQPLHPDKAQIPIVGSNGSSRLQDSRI
assay.summary: GlyT1 assay: 3H-glycine uptake into SK-N-MC cells (Cytostar-T format)
applied.conditions: glycine uptake in human SK-N-MC cells endogenously expressing GlyT1; 500 nM glycine, 1% DMSO, signal recorded over 60 min
Values of IC50 strictly less than 20 nM map to y, and values of at least 20 nM map to n.

Input line: Criterion: IC50 strictly below 20 nM. Is it met by C[C@H](Oc1ccc(-c2ncco2)cc1C(=O)N1CC2CC2(c2noc(C(F)(F)F)n2)C1)C(F)(F)F (mixture of isomers) ?
Output line: n

Input line: Bench note: check whether C[C@@H](Oc1ccc(S(C)(=O)=O)cc1C(=O)N1CC2CC2(c2noc(C(F)(F)F)n2)C1)C(F)(F)F (single isomer, unassigned) [Example 4] shows IC50 below 20 nM
Output line: y

====

Listing of entries alongside the reported IC50.
target.desc: GlyT1 transporter (Homo sapiens)
Construct: endogenously expressing the GlyT1 transporter
assay.summary: GlyT1 assay: 3H-glycine uptake into SK-N-MC cells (Cytostar-T format)
applied.conditions: glycine uptake in human SK-N-MC cells endogenously expressing GlyT1; 500 nM glycine, 1% DMSO, signal recorded over 60 min
Source text: Cells expressing either endogenously the GlyT1 transporter like JAR cells (human placental choriocarcinoma cells; e.g. WO 2008/002583) or SK-N-MC cells (human neuroblastoma cells; Depoortere et al., 2005. Neuropsychopharmacology 30:1963-1985) or primary neurons or cells which have been transfected with a plasmid encoding the cDNA of a functional GlyT1 transporter and stably or transiently express GlyT1 (e.g. WO 2006/08200) can be used to monitor glycine uptake in cells. […]
Kindly format the answer as number then unit.

Please review the following examples before continuing.
CCS(=O)(=O)c1ccc(O[C@H](C)C(F)(F)F)c(C(=O)N2CC3CC3(c3nccc(C(F)(F)F)n3)C2)c1 (single isomer, unassigned) [Example 77] | 0.113 µM
Cc1cnc(C23CC2CN(C(=O)c2cc(S(C)(=O)=O)ccc2O[C@@H](C)C(F)(F)F)C3)o1 (mixture of isomers) [Example 21] | 0.021 µM
CCS(=O)(=O)c1ccc(O[C@@H](C)C(F)(F)F)c(C(=O)N2CC3CC3(c3noc(C(F)(F)F)n3)C2)c1 (mixture of isomers) [Example 40] | 0.019 µM
CS(=O)(=O)c1ccc(O[C@@H]2CCOC2)c(C(=O)N2CC3CC3(c3noc(C(F)(F)F)n3)C2)c1 (single isomer, unassigned) [Example 140] | 3 µM
CCS(=O)(=O)c1ccc(O[C@H](C)C(F)(F)F)c(C(=O)N2CC3CC3(c3cc(C(F)(F)F)on3)C2)c1 (mixture of isomers) [Example 105] | 0.007 µM

For CCS(=O)(=O)c1ccc(O[C@@H](C)C(F)(F)F)c(C(=O)N2CC3CC3(c3cc(C(F)(F)F)on3)C2)c1 (mixture of isomers) [Example 102] the compound record lists IC50 as 0.018 µM
